Value source: the supplement of paper PMC5579334

test system: HS-Sch-2; experiment: % inhibition of CellTiter-Glo viability at highest tested concentration (72 h), relative to DMSO and benzethonium chloride controls; higher = more inhibition
A collection of molecules and their measured % inhibition
readout.kind: % inhibition

Cc1cnc(Nc2ccc(F)cc2Cl)nc1-c1c[nH]c(C(=O)N[C@H](CO)c2cccc(Cl)c2)c1 [VX-11E] (max concentration tested 2500 nM) :: 71.8%
C#Cc1cccc(Nc2ncnc3cc(OC)c(OCCCCCCC(=O)NO)cc23)c1 [CUDC-101] (max concentration tested 10000 nM) :: 101%
COc1cc(Br)c(Nc2nc(-c3c(C)nc4ncccn34)cs2)c(Br)c1 [PTC-209] (max concentration tested 10000 nM) :: 81%
CNC(=O)c1ccc(N2C(=S)N(c3ccc(C#N)c(C(F)(F)F)c3)C(=O)C2(C)C)cc1F [Enzalutamide] (max concentration tested 10000 nM) :: -3.43%
COc1cc2/c(=N/c3ccc(Br)cc3F)nc[nH]c2cc1OCC1CCN(C)CC1 [Vandetanib] (max concentration tested 1000 nM) :: 8.38%
O=C(NOCCO)c1ccc2cncn2c1Nc1ccc(I)cc1F [GDC-0623] (max concentration tested 2500 nM) :: 55%
Nc1ncnc2c1nc(Cl)n2[C@@H]1O[C@H](CO)[C@@H](O)[C@H]1O [8-chloro-adenosine] (max concentration tested 50000 nM) :: 80%
Cn1ncc(Cl)c1-c1cc(C(=O)N[C@H](CN)Cc2ccc(F)c(F)c2)oc1Cl [Uprosertib] (max concentration tested 10000 nM) :: 6.41%
CCOc1ccn(-c2ccc(F)cc2)c(=O)c1C(=O)Nc1ccc(Oc2ccnc(N)c2Cl)c(F)c1 (max concentration tested 2500 nM) :: 4.22%
Cc1ccc(Nc2nccc(N(C)c3ccc4c(C)n(C)nc4c3)n2)cc1S(N)(=O)=O [Pazopanib] (max concentration tested 10000 nM) :: 20.7%
Nc1ncnc2c1nc(N)n2[C@@H]1O[C@H](CO)[C@@H](O)[C@H]1O [8-amino-adenosine] (max concentration tested 50000 nM) :: 102%

* * *

test system: ST8814; test: relative IC50 (inflection point of fitted dose-response curve, CellTiter-Glo viability, 72 h; top asymptote may be below 50% inhibition); higher = less potent
A collection of compounds and their measured relative IC50
readout.kind: relative IC50 (nM)

O=C(Nc1ccc2[nH]nc(-c3ccncc3)c2c1)[C@@H]1CCN(CC(=O)N2CCN(c3ccc(-c4ncccn4)cc3)CC2)C1 :: 234
Nc1ncnc2c1nc(Cl)n2[C@@H]1O[C@H](CO)[C@@H](O)[C@H]1O :: 1240
COc1cc2c(cc1-c1c(C)noc1C)ncc1[nH]c(=O)n([C@H](C)c3ccccn3)c12 :: 918

* * *

A collection of molecules and their measured drug sensitivity score
tested on: ST8814; assay: drug sensitivity score (DSS, CellTiter-Glo viability, 72 h) (DSS (dimensionless)); higher = more sensitive; extreme values may be limits of the assay
readout.kind: drug sensitivity score

Nc1nc(F)nc2c1ncn2[C@@H]1O[C@H](CO)[C@@H](O)[C@@H]1O [Fludarabine] (max concentration tested 10000 nM) :: 0
COc1cc2/c(=N/c3ccc(Br)cc3F)nc[nH]c2cc1OCC1CCN(C)CC1 [Vandetanib] (max concentration tested 1000 nM) :: 0
COc1ccc(S(=O)(=O)Nc2cccnc2Nc2ccc(O)cc2)cc1 [ABT-751] (max concentration tested 10000 nM) :: 15.1
